Tested on: Escherichia coli TOP10
test-name: shrunken log2 fold change of peptide-encoding DNA abundance (4.5 h post-induction vs induction); higher = less antimicrobial activity (less host growth inhibition)
experimental-parameters: time post-induction: 4.5 h; library: site-saturation at positions 5, 18, 19, 20

sequence-text: RRIRWRPPRLPRPRPRPEVAPRP
shrunken log2 fold change: 1.25
--
sequence-text: RRIRNRPPRLPRPRPRPNWAPRP
shrunken log2 fold change: 0.0482
--
sequence-text: RRIRVRPPRLPRPRPRPKWDPRP
shrunken log2 fold change: 0.0182
--
sequence-text: RRIRMRPPRLPRPRPRPLWKPRP
shrunken log2 fold change: 0.0435
--
sequence-text: RRIRCRPPRLPRPRPRPTRWPRP
shrunken log2 fold change: 0.284
--
sequence-text: RRIRVRPPRLPRPRPRPCCSPRP
shrunken log2 fold change: -0.192
--
sequence-text: RRIRPRPPRLPRPRPRPKTMPRP
shrunken log2 fold change: 0.0176
--
sequence-text: RRIRKRPPRLPRPRPRPDRCPRP
shrunken log2 fold change: 0.00281
--
sequence-text: RRIRMRPPRLPRPRPRPQVAPRP
shrunken log2 fold change: 0.0435
--
sequence-text: RRIRNRPPRLPRPRPRPPWRPRP
shrunken log2 fold change: 0.437
--
sequence-text: RRIRCRPPRLPRPRPRPHREPRP
shrunken log2 fold change: -0.0514
--
sequence-text: RRIRMRPPRLPRPRPRPEREPRP
shrunken log2 fold change: 1.76
--
sequence-text: RRIRFRPPRLPRPRPRPNGFPRP
shrunken log2 fold change: 0.000958
--
sequence-text: RRIRRRPPRLPRPRPRPQHQPRP
shrunken log2 fold change: 0.246
--
sequence-text: RRIRNRPPRLPRPRPRPSVCPRP
shrunken log2 fold change: -0.174
--
sequence-text: RRIRRRPPRLPRPRPRPYNHPRP
shrunken log2 fold change: -0.8
--
sequence-text: RRIRNRPPRLPRPRPRPTYTPRP
shrunken log2 fold change: -0.303
--
sequence-text: RRIRFRPPRLPRPRPRPNHIPRP
shrunken log2 fold change: -0.937
--
sequence-text: RRIRTRPPRLPRPRPRPAIMPRP
shrunken log2 fold change: -0.0824
--
sequence-text: RRIRFRPPRLPRPRPRPEMCPRP
shrunken log2 fold change: -0.0817
--
sequence-text: RRIRMRPPRLPRPRPRPMEYPRP
shrunken log2 fold change: 0.0305
--
sequence-text: RRIRNRPPRLPRPRPRPKQIPRP
shrunken log2 fold change: -0.294
--
sequence-text: RRIRFRPPRLPRPRPRPDMPPRP
shrunken log2 fold change: -0.016
--
sequence-text: RRIRYRPPRLPRPRPRPGVQPRP
shrunken log2 fold change: 0.0651
--
sequence-text: RRIRMRPPRLPRPRPRPPCSPRP
shrunken log2 fold change: 0.489
--
sequence-text: RRIRSRPPRLPRPRPRPYVFPRP
shrunken log2 fold change: -0.545
--
sequence-text: RRIRERPPRLPRPRPRPESRPRP
shrunken log2 fold change: -0.0773
--
sequence-text: RRIRSRPPRLPRPRPRPFRFPRP
shrunken log2 fold change: -0.21

----------
Tested on: Escherichia coli TOP10
test-name: shrunken log2 fold change of peptide-encoding DNA abundance (4.5 h post-induction vs induction); higher = less antimicrobial activity (less host growth inhibition)
experimental-parameters: time post-induction: 4.5 h; library: site-saturation at positions 5, 18, 19, 20
Recorded shrunken log2 fold change, one value per entry.
observable: shrunken log2 fold change

sequence-text: RRIRLRPPRLPRPRPRPTQCPRP
observable: shrunken log2 fold change
obs-value: 0.0455
--
sequence-text: RRIRWRPPRLPRPRPRPPGGPRP
observable: shrunken log2 fold change
obs-value: 0.669
--
sequence-text: RRIRTRPPRLPRPRPRPNSWPRP
observable: shrunken log2 fold change
obs-value: -0.413
--
sequence-text: RRIRQRPPRLPRPRPRPQNGPRP
observable: shrunken log2 fold change
obs-value: 0.111
--
sequence-text: RRIRKRPPRLPRPRPRPFGRPRP
observable: shrunken log2 fold change
obs-value: -0.209
--
sequence-text: RRIRARPPRLPRPRPRPSMGPRP
observable: shrunken log2 fold change
obs-value: -0.0314
--
sequence-text: RRIRIRPPRLPRPRPRPTFDPRP
observable: shrunken log2 fold change
obs-value: -0.188
--
sequence-text: RRIRKRPPRLPRPRPRPVASPRP
observable: shrunken log2 fold change
obs-value: 0.533
--
sequence-text: RRIRGRPPRLPRPRPRPTMLPRP
observable: shrunken log2 fold change
obs-value: 0.52
--
sequence-text: RRIRFRPPRLPRPRPRPFMRPRP
observable: shrunken log2 fold change
obs-value: 0.559
--
sequence-text: RRIRRRPPRLPRPRPRPKLDPRP
observable: shrunken log2 fold change
obs-value: 0.523
--
sequence-text: RRIRARPPRLPRPRPRPRCNPRP
observable: shrunken log2 fold change
obs-value: 0.197
--
sequence-text: RRIRRRPPRLPRPRPRPYHFPRP
observable: shrunken log2 fold change
obs-value: -0.116
--
sequence-text: RRIRPRPPRLPRPRPRPGLIPRP
observable: shrunken log2 fold change
obs-value: -0.0104
--
sequence-text: RRIRFRPPRLPRPRPRPPSLPRP
observable: shrunken log2 fold change
obs-value: -0.112
--
sequence-text: RRIRWRPPRLPRPRPRPEGAPRP
observable: shrunken log2 fold change
obs-value: 1.13
--
sequence-text: RRIRTRPPRLPRPRPRPRWNPRP
observable: shrunken log2 fold change
obs-value: 0.969
--
sequence-text: RRIRARPPRLPRPRPRPGTSPRP
observable: shrunken log2 fold change
obs-value: 0.24
--
sequence-text: RRIRVRPPRLPRPRPRPKIQPRP
observable: shrunken log2 fold change
obs-value: -0.0896
--
sequence-text: RRIRVRPPRLPRPRPRPIWWPRP
observable: shrunken log2 fold change
obs-value: 1.44
--
sequence-text: RRIRSRPPRLPRPRPRPACCPRP
observable: shrunken log2 fold change
obs-value: 0.303
--
sequence-text: RRIRTRPPRLPRPRPRPYFCPRP
observable: shrunken log2 fold change
obs-value: -0.0855
--
sequence-text: RRIRWRPPRLPRPRPRPLLSPRP
observable: shrunken log2 fold change
obs-value: 0.148

----------
Tested on: Escherichia coli TOP10
test-name: shrunken log2 fold change of peptide-encoding DNA abundance (4.5 h post-induction vs induction); higher = less antimicrobial activity (less host growth inhibition)
experimental-parameters: time post-induction: 4.5 h; library: site-saturation at positions 5, 18, 19, 20

sequence-text: RRIRARPPRLPRPRPRPGNRPRP
measured-target: Escherichia coli TOP10
shrunken log2 fold change: 0.0467
--
sequence-text: RRIRVRPPRLPRPRPRPFCIPRP
measured-target: Escherichia coli TOP10
shrunken log2 fold change: -0.447
--
sequence-text: RRIRERPPRLPRPRPRPCMMPRP
measured-target: Escherichia coli TOP10
shrunken log2 fold change: -0.058
--
sequence-text: RRIRRRPPRLPRPRPRPKVRPRP
measured-target: Escherichia coli TOP10
shrunken log2 fold change: 0.111
--
sequence-text: RRIRRRPPRLPRPRPRPREVPRP
measured-target: Escherichia coli TOP10
shrunken log2 fold change: 0.442
--
sequence-text: RRIRRRPPRLPRPRPRPRGRPRP
measured-target: Escherichia coli TOP10
shrunken log2 fold change: 0.319
--
sequence-text: RRIRSRPPRLPRPRPRPFVPPRP
measured-target: Escherichia coli TOP10
shrunken log2 fold change: -0.27
--
sequence-text: RRIRFRPPRLPRPRPRPSPRPRP
measured-target: Escherichia coli TOP10
shrunken log2 fold change: 0.426
--
sequence-text: RRIRQRPPRLPRPRPRPFWYPRP
measured-target: Escherichia coli TOP10
shrunken log2 fold change: -0.171
--
sequence-text: RRIRYRPPRLPRPRPRPKDAPRP
measured-target: Escherichia coli TOP10
shrunken log2 fold change: -0.0259
--
sequence-text: RRIRQRPPRLPRPRPRPVTAPRP
measured-target: Escherichia coli TOP10
shrunken log2 fold change: -0.362
--
sequence-text: RRIRHRPPRLPRPRPRPDMDPRP
measured-target: Escherichia coli TOP10
shrunken log2 fold change: 0.0205
--
sequence-text: RRIRYRPPRLPRPRPRPEPDPRP
measured-target: Escherichia coli TOP10
shrunken log2 fold change: 0.0689
--
sequence-text: RRIRDRPPRLPRPRPRPIMVPRP
measured-target: Escherichia coli TOP10
shrunken log2 fold change: -0.103
--
sequence-text: RRIRQRPPRLPRPRPRPGSPPRP
measured-target: Escherichia coli TOP10
shrunken log2 fold change: -0.232
--
sequence-text: RRIRTRPPRLPRPRPRPSQPPRP
measured-target: Escherichia coli TOP10
shrunken log2 fold change: -0.16
--
sequence-text: RRIRYRPPRLPRPRPRPRSTPRP
measured-target: Escherichia coli TOP10
shrunken log2 fold change: -0.156
--
sequence-text: RRIRCRPPRLPRPRPRPDRDPRP
measured-target: Escherichia coli TOP10
shrunken log2 fold change: 0.108
--
sequence-text: RRIRKRPPRLPRPRPRPYRFPRP
measured-target: Escherichia coli TOP10
shrunken log2 fold change: -0.244
--
sequence-text: RRIRFRPPRLPRPRPRPKKHPRP
measured-target: Escherichia coli TOP10
shrunken log2 fold change: -0.264
--
sequence-text: RRIRTRPPRLPRPRPRPERHPRP
measured-target: Escherichia coli TOP10
shrunken log2 fold change: -0.0333
--
sequence-text: RRIRARPPRLPRPRPRPHRAPRP
measured-target: Escherichia coli TOP10
shrunken log2 fold change: 0.216
--
sequence-text: RRIRGRPPRLPRPRPRPTIYPRP
measured-target: Escherichia coli TOP10
shrunken log2 fold change: 0.365
--
sequence-text: RRIRPRPPRLPRPRPRPHYVPRP
measured-target: Escherichia coli TOP10
shrunken log2 fold change: -0.348
--
sequence-text: RRIRNRPPRLPRPRPRPNYEPRP
measured-target: Escherichia coli TOP10
shrunken log2 fold change: -0.21
--
sequence-text: RRIRTRPPRLPRPRPRPCKHPRP
measured-target: Escherichia coli TOP10
shrunken log2 fold change: -0.0101
--
sequence-text: RRIRLRPPRLPRPRPRPKHSPRP
measured-target: Escherichia coli TOP10
shrunken log2 fold change: -0.107
--
sequence-text: RRIRLRPPRLPRPRPRPLHFPRP
measured-target: Escherichia coli TOP10
shrunken log2 fold change: -0.197
--
sequence-text: RRIRVRPPRLPRPRPRPKPTPRP
measured-target: Escherichia coli TOP10
shrunken log2 fold change: 0.707
--
sequence-text: RRIRRRPPRLPRPRPRPGHCPRP
measured-target: Escherichia coli TOP10
shrunken log2 fold change: 0.0653
--
sequence-text: RRIRWRPPRLPRPRPRPHNNPRP
measured-target: Escherichia coli TOP10;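 also: peptides expressed intracellularly from a pBAD plasmid library in pooled LB shake-flask culture, induced with 0.3% L-arabinose, DNA abundance read by NGS, three biological replicates, DESeq2 with apeglm shrinkage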
shrunken log2 fold change: -0.749

FYI, the data here is from the supplement of paper PMC9112550.
